# target_system: human TLR7 (Homo sapiens)
# Sequence (Q9NYK1 27-1049): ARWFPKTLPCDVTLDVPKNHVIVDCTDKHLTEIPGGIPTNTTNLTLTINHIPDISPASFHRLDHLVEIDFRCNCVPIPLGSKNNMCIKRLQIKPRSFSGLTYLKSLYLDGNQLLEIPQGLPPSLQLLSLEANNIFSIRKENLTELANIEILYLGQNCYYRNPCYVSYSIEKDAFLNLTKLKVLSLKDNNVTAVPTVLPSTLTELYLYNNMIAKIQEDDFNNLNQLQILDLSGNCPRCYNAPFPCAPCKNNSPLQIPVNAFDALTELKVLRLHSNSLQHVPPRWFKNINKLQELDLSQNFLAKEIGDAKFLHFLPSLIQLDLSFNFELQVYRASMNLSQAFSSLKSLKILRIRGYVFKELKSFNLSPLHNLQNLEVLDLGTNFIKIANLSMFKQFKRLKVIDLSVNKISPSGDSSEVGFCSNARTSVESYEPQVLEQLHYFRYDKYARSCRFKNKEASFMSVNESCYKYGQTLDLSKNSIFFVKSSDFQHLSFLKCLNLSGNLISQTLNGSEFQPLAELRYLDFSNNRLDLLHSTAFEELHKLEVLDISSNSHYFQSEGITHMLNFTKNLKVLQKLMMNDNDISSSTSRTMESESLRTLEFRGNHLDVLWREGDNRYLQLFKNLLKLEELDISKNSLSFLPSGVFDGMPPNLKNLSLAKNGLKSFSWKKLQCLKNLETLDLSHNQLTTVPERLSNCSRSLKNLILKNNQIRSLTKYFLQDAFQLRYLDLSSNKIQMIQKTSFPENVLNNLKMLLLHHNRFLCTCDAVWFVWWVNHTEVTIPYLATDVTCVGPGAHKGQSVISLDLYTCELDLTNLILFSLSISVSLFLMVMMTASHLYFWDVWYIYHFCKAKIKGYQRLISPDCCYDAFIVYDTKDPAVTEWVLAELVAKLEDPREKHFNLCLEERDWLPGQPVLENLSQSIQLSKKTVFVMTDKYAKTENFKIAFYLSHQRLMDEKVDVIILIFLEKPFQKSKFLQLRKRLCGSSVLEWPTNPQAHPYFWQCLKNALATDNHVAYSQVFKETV
# experiment_summary: HEK293-Blue-hTLR-7 cells assay (SEAP reporter, R848 stimulation)
# run_conditions: HEK293-Blue-hTLR7 cells, R848, 20 hrs; lowest tested concentration 0.0032
# Description: The following tests were carried out in order to determine the activity of the compounds of this invention in HEK293-Blue-hTLR-7/8/9 cells assay. HEK293-Blue-hTLR-7 Cells Assay: A stable HEK293-Blue-hTLR-7 cell line was purchased from InvivoGen (Cat. #: hkb-htlr7, San Diego, Calif., USA). These cells were originally designed for studying the stimulation of human TLR7 by monitoring the activation of NF-κB. […]
Values of IC50 strictly less than 40 nM map to class 1, and values of at least 40 nM map to class 0.

Query block: I wonder whether C[C@H]1C[C@@H](NCc2cnc(N3CCN[C@H](C)C3)nc2)CN(c2ccc(C#N)c3ncccc23)C1 has IC50 below 40 nM. Can you tell?
Result block: class 1

Query block: Quick check: does C[C@H]1C[C@@H](NCc2ccc(N3CCN(C)CC3)cc2)CN(c2ccc(C#N)c3ncccc23)C1 have IC50 under 40 nM?
Result block: class 1

Query block: is_below(IC50, 40 nM) for C[C@H]1C[C@@H](NCc2cccc(N3CCN(C)CC3)c2)CN(c2ccc(C#N)c3ncccc23)C1 ?
Result block: class 0

Query block: Below 40 nM on IC50? Entry C[C@H]1C[C@@H](N2Cc3ccccc3C2)CN(c2ccc(C#N)c3ncccc23)C1 [Example R2, reference compound]
Result block: class 0

Query block: Could you please tell me whether IC50 recorded for C[C@H]1C[C@@H](NCc2ccccc2)CN(c2ccc(C#N)c3ncccc23)C1 [Example R1, reference compound] is less than 40 nM?
Result block: class 0

Query block: Strictly below 40 nM in IC50? C[C@H]1C[C@@H](NCc2ccc(N3CCNCC3)cn2)CN(c2ccc(C#N)c3ncccc23)C1
Result block: class 1

Query block: Determine whether this compound shows IC50 lower than 40 nM (ties excluded): C[C@H]1C[C@@H](N2CCc3cc(N4CCNCC4)ccc3C2)CN(c2ccc(C#N)c3ncccc23)C1 (relative stereo)
Result block: class 0
